Experiment: Drug level in blood of Sprague-Dawley rat with capsaicin-induced flinching at 3 mg/kg, po administered 1 hr before capsaicin challenge
Format: ADME, organism-based
Set-up: dose 3 mg/kg, route oral
Conditions: read-out: Drug uptake
Test readout: concentration at 1 h (ng/mL)
Respond with the bare value in ng/mL.

Here's what some known entries look like.
Req: Give the reported concentration at 1 h for this compound. "Nc1nc2c(Oc3cc(-c4ccc(C(F)(F)F)nc4NCCN4CCOCC4)ncn3)cccc2[nH]c1=O"
Resp: 67.1

Req: Give the reported concentration at 1 h for this compound. "Nc1nc2c(Oc3cc(-c4ccc(C(F)(F)F)nc4N[C@@H]4CCOC4)ncn3)cccc2[nH]c1=O"
Resp: 32.8

Kindly consider the entry below.
Req: Give the reported concentration at 1 h for this compound. "Nc1nc(C(F)(F)F)ccc1-c1cc(Oc2cccc3[nH]c(=O)c(N)nc23)ncn1"
Resp: 252

---

Target: Transient receptor potential cation channel subfamily V member 1 (Homo sapiens, UniProt Q8NER1)
Sequence (Q8NER1 whole entry): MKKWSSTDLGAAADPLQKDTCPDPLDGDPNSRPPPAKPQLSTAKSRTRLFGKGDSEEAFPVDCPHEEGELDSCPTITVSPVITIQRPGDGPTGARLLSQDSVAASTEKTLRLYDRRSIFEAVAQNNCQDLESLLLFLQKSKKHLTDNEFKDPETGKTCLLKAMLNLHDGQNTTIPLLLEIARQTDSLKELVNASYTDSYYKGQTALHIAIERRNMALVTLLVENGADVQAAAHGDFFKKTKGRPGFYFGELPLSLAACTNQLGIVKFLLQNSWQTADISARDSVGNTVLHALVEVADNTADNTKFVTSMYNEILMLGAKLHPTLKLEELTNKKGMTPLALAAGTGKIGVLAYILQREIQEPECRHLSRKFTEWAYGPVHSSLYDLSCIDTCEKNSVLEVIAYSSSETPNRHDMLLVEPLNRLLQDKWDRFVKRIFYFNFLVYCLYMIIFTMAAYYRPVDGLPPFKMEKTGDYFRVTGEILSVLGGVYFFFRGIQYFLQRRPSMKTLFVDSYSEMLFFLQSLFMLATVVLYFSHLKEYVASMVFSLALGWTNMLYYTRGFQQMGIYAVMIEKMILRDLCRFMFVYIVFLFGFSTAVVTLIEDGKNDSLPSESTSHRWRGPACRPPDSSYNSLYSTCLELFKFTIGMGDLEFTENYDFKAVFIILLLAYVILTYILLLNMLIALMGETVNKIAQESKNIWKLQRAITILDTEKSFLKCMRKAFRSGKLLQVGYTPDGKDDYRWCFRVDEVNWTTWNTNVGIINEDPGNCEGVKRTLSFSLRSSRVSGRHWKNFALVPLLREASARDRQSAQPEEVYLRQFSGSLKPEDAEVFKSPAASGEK
Assay: Antagonist activity at human TRPV1 assessed as inhibition of low pH-induced calcium influx
Type: functional
Test readout: IC50 (nM)
Respond with the bare value in nM.

Req: Give the reported IC50 for this compound. "CC(=O)Nc1nc2c(Oc3cc(-c4ccc(C(F)(F)F)cc4)ncn3)cccc2s1"
Resp: 0.6

---

Assay: Drug level in blood of Sprague-Dawley rat with capsaicin-induced flinching at 10 mg/kg, po administered 1 hr before capsaicin challenge
Assay type: ADME, organism-based
Parameters: dose 10 mg/kg, route oral
Settings: read-out: Drug uptake
This listing pairs compounds with measured concentration at 1 h.
Respond with the bare value in ng/mL.

Here's what some known entries look like.
Req: Give the reported concentration at 1 h for this compound. CC(Nc1nc(Oc2cccc3[nH]c(=O)c(N)nc23)cc(-c2ccc(C(F)(F)F)cc2)n1)c1ccccn1 (stereo not drawn)
Resp: 267

Req: Give the reported concentration at 1 h for this compound. CC(O)CCNc1nc(Oc2cccc3[nH]c(=O)c(N)nc23)cc(-c2ccc(C(F)(F)F)cc2)n1 (stereo not drawn)
Resp: 494

Kindly consider the entry below.
Req: Give the reported concentration at 1 h for this compound. "COC[C@H](C)Nc1nc(Oc2cccc3[nH]c(=O)c(N)nc23)cc(-c2ccc(C(F)(F)F)cc2N)n1"
Resp: 342

---

Target: Transient receptor potential cation channel subfamily V member 1 (Homo sapiens)
Assay: Antagonist activity at human TRPV1 assessed as inhibition of capsaicin-induced calcium influx
Format: functional
Test readout: IC50 (pM)
Respond with the bare value in pM.

Req: Give the reported IC50 for this compound. CC(=O)Nc1nc2c(Oc3cc(-c4ccc(C(F)(F)F)cc4)ncn3)cccc2s1 [AMG-517]
Resp: 800

---

This listing pairs compounds with measured concentration at 1 h.
Test: Drug level in blood of Sprague-Dawley rat with capsaicin-induced flinching at 10 mg/kg, po administered 1 hr before capsaicin challenge
Format: ADME, organism-based
Parameters: dose 10 mg/kg, route oral
Settings: read-out: Drug uptake
Respond with the bare value in ng/mL.

Here's what some known entries look like.
Req: Give the reported concentration at 1 h for this compound. "Nc1nc2c(Oc3cc(-c4ccc(C(F)(F)F)cc4NC(=O)c4ccncc4)ncn3)cccc2[nH]c1=O"
Resp: 0.82

Req: Give the reported concentration at 1 h for this compound. "COCCNc1nc(Oc2cccc3[nH]c(=O)c(N)nc23)cc(-c2ccc(C(F)(F)F)cc2N)n1"
Resp: 298

Req: Give the reported concentration at 1 h for this compound. "CC(C)(C)NC(=O)Nc1cc(C(F)(F)F)ccc1-c1cc(Oc2cccc3[nH]c(=O)c(N)nc23)ncn1"
Resp: 196

---
Req: Give the reported concentration at 1 h for this compound. "COC[C@H](C)Nc1nc(Oc2cccc3[nH]c(=O)c(N)nc23)cc(-c2ccc(C(F)(F)F)nc2N)n1"
Resp: 5.48
